The measurements presented in this section are drawn from patent US20240325555A1.

Target: T1, human LIV-1 (human, UniProt Q13433 29-755)
T1 construct: whole, on cells; also called H-LIV1
T1 sequence (looked up): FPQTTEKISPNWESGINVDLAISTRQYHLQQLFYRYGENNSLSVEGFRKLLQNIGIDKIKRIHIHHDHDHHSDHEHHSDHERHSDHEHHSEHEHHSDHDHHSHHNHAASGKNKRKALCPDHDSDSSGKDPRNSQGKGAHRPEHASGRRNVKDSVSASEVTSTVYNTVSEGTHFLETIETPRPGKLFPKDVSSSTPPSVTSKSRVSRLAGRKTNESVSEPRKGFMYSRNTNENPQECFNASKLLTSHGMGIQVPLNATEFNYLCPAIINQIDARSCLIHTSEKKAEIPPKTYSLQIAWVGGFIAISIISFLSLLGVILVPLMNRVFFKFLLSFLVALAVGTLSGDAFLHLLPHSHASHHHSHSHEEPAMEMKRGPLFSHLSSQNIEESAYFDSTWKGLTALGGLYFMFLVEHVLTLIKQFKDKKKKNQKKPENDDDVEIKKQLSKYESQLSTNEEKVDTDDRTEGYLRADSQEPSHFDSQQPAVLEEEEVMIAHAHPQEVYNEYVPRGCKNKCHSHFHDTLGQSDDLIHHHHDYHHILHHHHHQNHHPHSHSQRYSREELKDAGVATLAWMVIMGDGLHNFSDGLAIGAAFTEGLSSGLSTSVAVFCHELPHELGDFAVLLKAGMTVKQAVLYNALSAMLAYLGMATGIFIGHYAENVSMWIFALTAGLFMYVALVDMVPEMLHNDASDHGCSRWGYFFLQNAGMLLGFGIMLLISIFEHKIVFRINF
Assay: FACS, HEK293/H_LIV-1 cells
assay-metric: EC50 (nM)
Just the number in nM, nothing appended.

Check out these entries, answers already filled in.
>  <binder>
5D6B10 (antibody, V domains shown, Tested as chimeric antibody) VH: QVQLKQSGPGLVQPSQSLSITCTVSGFSLTTYGIHWVRQSPGKGLEWLGVIWTGGTTDYNAAFISRLSISKDNSKSQVFFKMNSLQANDTAIYYCARGPSSYWGQGTLVTVSA VL: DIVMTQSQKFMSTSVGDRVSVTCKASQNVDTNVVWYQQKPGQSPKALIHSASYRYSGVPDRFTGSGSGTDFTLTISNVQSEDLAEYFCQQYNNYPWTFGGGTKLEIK

>  <assay-metric>
EC50

>  <recorded-number>
0.29

$$$$
>  <binder>
5D6B10.Z3 (antibody, V domains shown) VH: QVQLVESGGGVVQPGRSLRLSCAVSGFSLTTYGIHWVRQAPGKGLEWLAVIWTGGTTDYNAAFISRFTISKDNSKSTLYLQMNSLRAEDTAVYYCARGPSSYWGQGTLVTVSS VL: DIVMTQSPATLSVSPGERVTVSCKASQNVDTNVVWYQQKPGQSPRALIHSASYRYSGVPDRFSGSGSGTDFTLTISSVQSEDFAVYFCQQYNNYPWTFGGGTKLEIK

>  <assay-metric>
EC50

>  <recorded-number>
0.33

$$$$
>  <binder>
124H4D11.p2.z1 (antibody, V domains shown) VH: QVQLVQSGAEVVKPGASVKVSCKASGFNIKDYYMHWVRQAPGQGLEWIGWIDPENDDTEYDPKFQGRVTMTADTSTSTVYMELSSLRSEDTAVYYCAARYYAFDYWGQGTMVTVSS VL: DVQMTQSPSSLSASVGDRVTITCRSSQSIVHSNANTYLEWYLQKPGKSPKLLIYKVSNRFSGVPDRFSGSGSGTDFTLTISSLQPEDFATYYCFQGSQVPPTFGQGTRLEIK

>  <assay-metric>
EC50

>  <recorded-number>
0.89

$$$$
>  <binder>
5D6B10.Z5 (antibody, V domains shown) VH: QVQLVESGGGVVQPGRSLRLSCTVSGFSLTTYGIHWVRQSPGKGLEWLGVIWTGGTTDYNAAFISRLTISKDNSKSTLYFQMNSLRAEDTAVYYCARGPSSYWGQGTLVTVSS VL: EIVMTQSPATLSVSPGERATVSCKASQNVDTNVVWYQQKPGQSPRALIHSASYRYSGVPDRFSGSGSGTDFTLTISSLQSEDFAVYFCQQYNNYPWTFGQGTKVEIK

>  <assay-metric>
EC50

>  <recorded-number>
0.17

$$$$
>  <binder>
5D6B10.Z6 (antibody, V domains shown) VH: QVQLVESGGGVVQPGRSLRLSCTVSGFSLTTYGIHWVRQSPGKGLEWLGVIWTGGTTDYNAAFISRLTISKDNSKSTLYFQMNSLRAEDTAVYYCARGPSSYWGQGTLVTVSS VL: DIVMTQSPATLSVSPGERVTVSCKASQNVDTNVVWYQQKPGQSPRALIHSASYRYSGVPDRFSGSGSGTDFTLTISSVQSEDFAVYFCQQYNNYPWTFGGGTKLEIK

>  <assay-metric>
EC50

>  <recorded-number>
0.24

$$$$

Report EC50 for 5D6B10.Z7 (antibody, V domains shown) VH: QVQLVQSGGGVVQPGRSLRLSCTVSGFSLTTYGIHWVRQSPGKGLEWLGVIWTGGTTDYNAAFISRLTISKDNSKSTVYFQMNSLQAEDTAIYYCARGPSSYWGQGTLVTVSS VL: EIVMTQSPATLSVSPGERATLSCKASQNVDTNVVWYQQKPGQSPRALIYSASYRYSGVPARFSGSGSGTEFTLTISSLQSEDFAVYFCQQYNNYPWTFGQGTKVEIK please.
0.22

Same read-out for 5D6B10.Z2 (antibody, V domains shown) VH: QVQLVESGGGVVQPGRSLRLSCAVSGFSLTTYGIHWVRQAPGKGLEWLAVIWTGGTTDYNAAFISRFTISKDNSKSTLYLQMNSLRAEDTAVYYCARGPSSYWGQGTLVTVSS VL: EIVMTQSPATLSVSPGERATVSCKASQNVDTNVVWYQQKPGQSPRALIHSASYRYSGVPDRFSGSGSGTDFTLTISSLQSEDFAVYFCQQYNNYPWTFGQGTKVEIK ?
0.18

Same read-out for 124H4D11.p2.z3 (antibody, V domains shown) VH: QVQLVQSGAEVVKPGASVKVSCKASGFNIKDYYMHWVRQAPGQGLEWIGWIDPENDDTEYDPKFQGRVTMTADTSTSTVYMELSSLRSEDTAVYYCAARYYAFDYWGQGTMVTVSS VL: DVLMTQSPSSLSVSVGDRATISCRSSQSIVHSNANTYLEWYLQKPGKSPKLLIYKVSNRFSGVPDRFSGSGSGTEFTLTISSVQPEDFGVYYCFQGSQVPPTFGGGTRLEIK ?
0.12

Same read-out for 5D6B10.Z9 (antibody, V domains shown) VH: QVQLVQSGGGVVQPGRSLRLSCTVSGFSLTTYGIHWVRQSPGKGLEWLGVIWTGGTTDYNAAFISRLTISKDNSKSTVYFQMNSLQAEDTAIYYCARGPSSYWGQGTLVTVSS VL: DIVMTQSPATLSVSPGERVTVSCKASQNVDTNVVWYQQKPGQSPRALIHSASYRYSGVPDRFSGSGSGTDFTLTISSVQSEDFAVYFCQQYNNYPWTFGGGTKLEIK ?
0.24

Same read-out for 5D6B10.Z11 (antibody, V domains shown) VH: QVQLQESGPGLVKPSGTLSLTCAVSGFSLTTYGIHWVRQSPGKGLEWLGVIWTGGTTDYNAAFISRLTISKDKSKNQVSLKLSSVTAADTAVYYCARGPSSYWGQGTLVTVSS VL: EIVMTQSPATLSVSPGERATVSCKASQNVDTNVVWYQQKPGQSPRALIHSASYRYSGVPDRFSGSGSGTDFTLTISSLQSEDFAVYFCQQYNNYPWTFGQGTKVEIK ?
0.29
